target: cathepsin L (Homo sapiens); assay: Fluorometric cathepsin L inhibition assay (Cbz-Phe-Arg-AMC); type: biochemical; design: purchased Calbiochem, Merck Millipore; conditions: at 20 µM inhibitor; read-out: Cath. L % inh.
Reported property: inhibition at 20 µM (%)

1) COC(=O)[C@H](CC(C)C)NC(=O)[C@H](Cc1ccccc1)NC1=C(C#N)C(=O)c2ccccc2C1=O    40
2) COC(=O)[C@H](CC(C)C)NC(=O)[C@H](Cc1ccccc1)NC1=C(Cl)C(=O)c2ccccc2C1=O    45
3) CC(C)C[C@H](NC(=O)[C@H](Cc1ccccc1)NC1=C(Cl)C(=O)c2ccccc2C1=O)C(=O)OC(C)(C)C    38
4) CC(C)C[C@H](NC(=O)[C@H](Cc1ccccc1)NC1=C(C#N)C(=O)c2ccccc2C1=O)C(=O)OC(C)(C)C    21

* * *

target: cathepsin L (Homo sapiens, UniProt P07711); assay: Fluorometric cathepsin L inhibition assay (Cbz-Phe-Arg-AMC); assay type: biochemical; design: purchased Calbiochem, Merck Millipore; conditions: from plots of IC50 vs substrate concentration (Cheng–Prusoff); read-out: Cath. L Ki
Sequence (P07711 114-333): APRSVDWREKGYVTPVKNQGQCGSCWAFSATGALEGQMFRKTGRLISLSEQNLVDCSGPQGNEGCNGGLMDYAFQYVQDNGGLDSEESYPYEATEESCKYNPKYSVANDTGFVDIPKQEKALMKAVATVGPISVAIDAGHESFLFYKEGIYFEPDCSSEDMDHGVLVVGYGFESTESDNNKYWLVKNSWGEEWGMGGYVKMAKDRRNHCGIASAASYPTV
Reported property: Ki (nM)

1. CC(C)CC(NC(=O)C(Cc1ccccc1)NC1=C(Cl)C(=O)c2ccccc2C1=O)C(=O)OCc1ccccc1 (stereo not shown) [Compound 1]    1140
